target: Prostaglandin G/H synthase 1 (Homo sapiens, UniProt P23219); test: Inhibitory activity against human recombinant Prostaglandin G/H synthase 1
Sequence (P23219 whole entry): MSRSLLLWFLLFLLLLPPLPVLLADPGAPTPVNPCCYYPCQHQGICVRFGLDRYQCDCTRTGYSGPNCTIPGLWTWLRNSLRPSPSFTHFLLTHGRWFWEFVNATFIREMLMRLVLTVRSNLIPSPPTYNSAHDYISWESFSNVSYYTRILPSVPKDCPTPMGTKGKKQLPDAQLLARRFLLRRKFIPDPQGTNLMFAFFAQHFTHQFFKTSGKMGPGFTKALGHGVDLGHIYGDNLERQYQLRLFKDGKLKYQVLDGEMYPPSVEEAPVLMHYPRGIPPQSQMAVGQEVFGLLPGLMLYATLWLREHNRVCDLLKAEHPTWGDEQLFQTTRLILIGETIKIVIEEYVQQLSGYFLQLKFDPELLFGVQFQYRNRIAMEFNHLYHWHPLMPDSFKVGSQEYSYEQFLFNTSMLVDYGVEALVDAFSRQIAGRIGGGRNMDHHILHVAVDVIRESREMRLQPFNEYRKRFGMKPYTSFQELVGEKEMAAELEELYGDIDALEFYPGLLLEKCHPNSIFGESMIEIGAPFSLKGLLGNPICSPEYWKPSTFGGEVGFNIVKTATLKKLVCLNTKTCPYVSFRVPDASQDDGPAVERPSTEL
pIC50: −log10 of the molar value.
ENDPOINT NAME: pIC50

>>> print(df.to_string())
                                  structure                           subject_of_test  endpoint_name  result_modifier  observed
0  COc1ccc(-c2cscc2-c2ccc(S(C)(=O)=O)cc2)cc1  Prostaglandin G/H synthase 1 (Homo sapiens, UniProt P23219)          pIC50                =      6.05
1  CS(=O)(=O)c1ccc(-c2c(Br)sc(Br)c2-c2ccc(F)cc2)cc1  Prostaglandin G/H synthase 1 (Homo sapiens, UniProt P23219)          pIC50                <      3.00
2  COc1ccc(-c2cscc2-c2ccc(S(N)(=O)=O)cc2)cc1F  Prostaglandin G/H synthase 1 (Homo sapiens, UniProt P23219)          pIC50                =      5.00
3  COc1ccc(-c2cscc2-c2ccc(S(C)(=O)=O)cc2)cc1F  Prostaglandin G/H synthase 1 (Homo sapiens, UniProt P23219)          pIC50                <      4.00
4  CS(=O)(=O)c1ccc(-c2cscc2-c2ccc(F)cc2)cc1  Prostaglandin G/H synthase 1 (Homo sapiens, UniProt P23219)          pIC50                <      3.00
5  CS(=O)(=O)c1ccc(-c2csc(Br)c2-c2ccc(F)cc2)cc1  Prostaglandin G/H synthase 1 (Homo sapiens, UniProt P23219)          pIC50                =      5.28
6  CS(=O)(=O)c1ccc(-c2c(-c3ccc(F)cc3)csc2Br)cc1  Prostaglandin G/H synthase 1 (Homo sapiens, UniProt P23219)          pIC50                <      4.00
7  NS(=O)(=O)c1ccc(-c2cscc2-c2ccc(F)cc2)cc1  Prostaglandin G/H synthase 1 (Homo sapiens, UniProt P23219)          pIC50                =      5.74

====

As a worked illustration, we turn to IC50 data collected for Prostaglandin G/H synthase 2 (Homo sapiens).
ENDPOINT NAME: IC50

In [3]: df
Out[3]:
                                  structure  observed
0  COc1ccc(-c2cscc2-c2ccc(S(C)(=O)=O)cc2)cc1F     30 nM
1  CS(=O)(=O)c1ccc(-c2c(Br)sc(Br)c2-c2ccc(F)cc2)cc1    700 nM
